Study System: T1, human CD25 (human, UniProt P01589 22-272)
T1 construct: In the functional assays it was native on T cells or SUDHL-1 cells; also called huCD25; hCD25
T1 sequence: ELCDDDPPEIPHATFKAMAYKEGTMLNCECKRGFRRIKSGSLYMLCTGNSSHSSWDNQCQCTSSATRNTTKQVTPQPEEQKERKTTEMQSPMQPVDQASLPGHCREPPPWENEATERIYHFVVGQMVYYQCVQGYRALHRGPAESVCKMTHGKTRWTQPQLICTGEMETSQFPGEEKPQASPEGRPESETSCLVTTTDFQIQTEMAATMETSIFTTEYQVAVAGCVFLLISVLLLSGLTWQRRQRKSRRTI
Protocol Details: flow cytometry on HEK293 cells transiently transfected with huCD25; 3-fold dilutions from 500 nM; detection with anti-human IgG (Fc specific) FITC
Value Type: binding result

| Binder | Value Type | Measured Value |
| --- | --- | --- |
| B01 (antibody, V domains shown, detected with anti-human IgG (Fc specific); also called anti-CD25 antibody B01) VH: QVQLVESGGGVVQPGRSLRLSCAASGFTFSNHAMAWVRQAPGKGLEWVAVISYDGSNKYYADSVKGRFTISRDNAKSTLYLQMNSLRAEDTAVYYCTTGLNSGYDWGQGTLVTVSS VL: DIQMTQSPSSLSASVGDRVTITCRASQNISSFLNWYQQKPGEAPRRLIYGTNSLQSGVPSRFSGSGSGTDYTLTISSLQPEDFATYYCQQYNSWPWTFGQGTKLEIK | binding result | binds |
| H08 (antibody, V domains shown, detected with anti-human IgG (Fc specific); also called anti-CD25 antibody H08) VH: QVQLVESGGGVVQPGRSLRLSCAASGFTFSNHAMAWVRQAPGKGLEWVAVISYDGSNKYYADSVKGRFTISRDNSKNTLYLQMNSLRAEDTAVYYCTTGLNSGYDWGQGTLVTVSS VL: DIQMTQSPSSLSASVGDRVTITCRASQSVSSYLNWYQQKPGKAPRRLIYGTNSLQSGVPSRFSGSGSGTDYTLTISSLQPEDFATYYCQQYTSWPWTFGQGTKLEIK | binding result | binds |
| H02 (antibody, V domains shown, detected with anti-human IgG (Fc specific); also called anti-CD25 antibody H02) VH: QVQLVESGGGVVQPGRSLRLSCAASGFTFSNHAMAWVRQAPGKGLEWVAVISYDGSNKYYRDSVKGRFTISRDNSQSTLYLQMNSLRAEDTAVYYCTTGLNSGYDWGQGTLVTVSS VL: DIQMTQSPSSLSASVGDRVTITCRASQNVSSFLNWYQQKPGEAPRRLIYGTNSLQSGVPSRFSGSGSGTDYTLTISSLQPEDFATYYCQQYNSWPWTFGQGTKLEIK | binding result | binds |

Values from patent US20240002522A1
